target: recombinant PRL-2 (Homo sapiens); construct: 6xHis (N, cleaved yes); made in house; host or cells: E. coli One Shot BL21 Star; assay: In vitro phosphatase assay (DiFMUP hydrolysis), PRL-2; type: biochemical; conditions: FDA-approved drug screen; activity compared to DMSO;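 also: PRL-2 activity read as DiFMUP hydrolysis after 20 min at room temperature with drug, enzyme first pre-reduced at 4 °C for 20 min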
Sequence (Q12974 whole entry): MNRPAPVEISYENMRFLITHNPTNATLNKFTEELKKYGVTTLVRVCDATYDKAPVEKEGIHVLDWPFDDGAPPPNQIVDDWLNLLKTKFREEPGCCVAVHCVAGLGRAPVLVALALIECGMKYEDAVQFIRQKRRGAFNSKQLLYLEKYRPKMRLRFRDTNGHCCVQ
measurementName: % Phosphatase Activity (compared to DMSO) PRL-2 (%)

- compound: "Cc1cccc(Nc2ccncc2S(=O)(=O)NC(=O)NC(C)C)c1 [Torsemide]"
  observedValue: 93
- compound: "CCOc1ccccc1OCCN[C@H](C)Cc1ccc(OC)c(S(N)(=O)=O)c1"
  observedValue: 107
- compound: "CC(=O)O[C@H]1C[C@@H]2CC[C@@H]3[C@H](CC[C@@]4(C)[C@H]3C[C@H]([N+]3(C)CCCCC3)[C@@H]4OC(C)=O)[C@@]2(C)C[C@@H]1N1CCCCC1 [Vecuronium Bromide]"
  observedValue: 100
- compound: "Cn1c(COP(=O)(NCCBr)NCCBr)cnc1[N+](=O)[O-]"
  observedValue: 100
- compound: "C[C@@H]1COC(Nc2ccc3ncnc(Nc4ccc(OCc5nccs5)c(Cl)c4)c3c2)=N1"
  observedValue: 142
- compound: "COc1cc([C@@H]2c3cc4c(cc3[C@@H](O[C@@H]3O[C@@H]5CO[C@@H](c6cccs6)O[C@H]5[C@H](O)[C@H]3O)[C@H]3COC(=O)[C@H]23)OCO4)cc(OC)c1O [Teniposide]"
  observedValue: 98
- compound: "CN1C(C(=O)Nc2ccccn2)=C(O)c2sccc2S1(=O)=O"
  observedValue: 75

All values here come from paper PMC8119466.
